Each entry below carries its reported glass transition temperature.

Look over these answered cases.
>>> reported_result("*CCCCCCCNC(=S)N* (repeat unit)")
"52.00 °C"
>>> reported_result("*CC(O*)C1CC(F)(F)C1(F)F (repeat unit)")
"-25.00 °C"

glass transition temperature recorded for this compound, *CCCC(*)(C)C(=O)O (repeat unit) , is 132.00 °C

glass transition temperature recorded for this compound, *CC(*)(C)C(=O)OCC#C (repeat unit) , is 58.00 °C

glass transition temperature recorded for this compound, *CCCCCCOC(=O)OCCCCCOC(=O)OCCCCCCOc1ccc(C(=O)c2ccc(O*)cc2)cc1 (repeat unit) , is -0.20 °C

----------
Each entry below carries its reported glass transition temperature.
I only need the number, in °C, no unit after it.

Look over these answered cases.
>>> reported_result("*C(=O)OCCN(CCOC(=O)c1ccc2c(c1)C(=O)N(c1c(C)cc(Cc3cc(C)c(N4C(=O)c5ccc(*)cc5C4=O)c(C)c3)cc1C)C2=O)c1ccc(/N=N/c2ccc([N+](=O)[O-])cc2)cc1 (repeat unit)")
179.00
>>> reported_result("*C(=O)Nc1ccc(Oc2ccc(C(c3ccc(Oc4ccc(NC(=O)c5ccc6c(c5)C(=O)N(c5ccc(Oc7cccc8c(Oc9ccc(N%10C(=O)c%11ccc(*)cc%11C%10=O)cc9)cccc78)cc5)C6=O)cc4)cc3)(C(F)(F)F)C(F)(F)F)cc2)cc1 (repeat unit)")
231.00
>>> reported_result("*OC(CCOc1ccccc1)CC(*)=O (repeat unit)")
20.00
>>> reported_result("*c1ccc2c(c1)Sc1cc(-c3sc4cc(*)sc4c3CCCCC)ccc1N2CCCCCC (repeat unit)")
126.00
>>> reported_result("*Sc1ccc(Nc2ccc(*)cc2)cc1 (repeat unit)")
145.00
>>> reported_result("*CC(*)(C)C(=O)Oc1ccc(/N=N/c2ccc(OCCCCCCCCCCCOC(=O)c3ccc4c(c3)OCCOCCOCCOCCO4)cc2)cc1 (repeat unit)")
19.00

Now for a further compound.
glass transition temperature recorded for this compound, *Oc1ccc(-c2ccc(OC(=O)c3cc(CCCCC)cc(C(*)=O)c3)cc2)cc1 (repeat unit) , is 138.00

----------
Each entry below carries its reported glass transition temperature.
I only need the number, in °C, no unit after it.

Look over these answered cases.
>>> reported_result("*Oc1ccc(C(C)(c2ccccc2)c2ccc(OC(=O)OC3C(C)(C)C(OC(*)=O)C3(C)C)cc2)cc1 (repeat unit)")
149.00
>>> reported_result("*C(=O)Nc1cccc(NC(=O)c2ccc3[nH]c(-c4ccc(-c5nc6cc(*)ccc6[nH]5)cc4)nc3c2)c1 (repeat unit)")
294.00
>>> reported_result("*CC(*)(C)C(=O)OCc1ccccc1 (repeat unit) [Poly(benzyl methacrylate)]")
54.00
>>> reported_result("*Oc1ccccc1C(=O)OC(=O)c1ccccc1OC(=O)CCCCCC(*)=O (repeat unit)")
40.00
>>> reported_result("*c1ccc2c(c1)C(=O)N(c1ccc3c(c1)Cc1cc(N4C(=O)c5ccc(C(*)(C(F)(F)F)C(F)(F)F)cc5C4=O)ccc1-3)C2=O (repeat unit)")
394.00

glass transition temperature recorded for this molecule, *c1ccc(CC(=O)Nc2cccc(NC(=O)Cc3ccc(-c4sc(*)c(-c5ccccc5)c4-c4ccccc4)cc3)c2)cc1 (repeat unit) , is 228.00

glass transition temperature recorded for this molecule, *Oc1ccc(-c2ccc(OC(=O)CCCCCCCCCCCCC(*)=O)cc2)cc1 (repeat unit) , is 95.00

----------
Mark true for reported glass transition temperature of 100 °C or greater; mark false for anything smaller.

Some solved entries appear below for comparison.
>>> assigned_label("*CCCCCCCCCNC(=O)CCCCCCCCCCCCCCCCCCC(=O)N* (repeat unit)")
"false"
>>> assigned_label("*Oc1cc(OC(=O)c2ccc(OCC(C)CC)cc2)c(OC(=O)CCCC(*)=O)cc1OC(=O)c1ccc(OCC(C)CC)cc1 (repeat unit)")
"false"
>>> assigned_label("*CC(=O)NCC(=O)O* (repeat unit)")
"false"
>>> assigned_label("*c1ccc(Oc2ccc(Oc3ccc(N4C(=O)c5ccc(-c6ccc7c(c6)C(=O)N(*)C7=O)cc5C4=O)cc3)c(-c3ccccc3)c2)cc1 (repeat unit)")
"true"

# bool: glass transition temperature of *C(=O)Nc1ccc(Oc2ccc(NC(=O)c3ccc(N4C(=O)c5ccc(*)cc5C4=O)cc3)cc2)cc1 (repeat unit) >= 100 °C
true

# bool: glass transition temperature of *Oc1ccc(/C(=C/c2ccc(-c3ccc(/C=C(\c4ccccc4)c4ccc(OC(=O)CCCCCCCCC(*)=O)cc4)cc3)cc2)c2ccccc2)cc1 (repeat unit) >= 100 °C
true

----------
Each entry below carries its reported glass transition temperature.
I only need the number, in °C, no unit after it.

Look over these answered cases.
>>> reported_result("*Oc1ccc(C(C)(C)c2ccc(Oc3ccc(*)nn3)cc2)cc1 (repeat unit)")
180.00
>>> reported_result("*CCCN(*)C(=O)CC (repeat unit)")
8.00
>>> reported_result("*C(=O)Nc1ccc(Oc2cc(C(C)(C)C)c(Oc3ccc(NC(=O)c4ccc5c(c4)C(=O)N(c4ccc(Oc6ccc(C7(c8ccc(Oc9ccc(N%10C(=O)c%11ccc(*)cc%11C%10=O)cc9)cc8)CC8CC7C7CCCC87)cc6)cc4)C5=O)cc3)cc2C(C)(C)C)cc1 (repeat unit)")
290.00
>>> reported_result("*Oc1ccc2c(c1)C1(CC2(C)C)CC(C)(C)c2ccc(OC(=O)c3ccc(C(*)=O)cc3)cc21 (repeat unit)")
290.00
>>> reported_result("*CC(*)(C)C(=O)OCCCCCCCCCCCCCCC(=O)NC1OC(CO)C(OC2OC(CO)C(O)C(O)C2O)C(O)C1O (repeat unit)")
133.00
>>> reported_result("*c1ccc(C(=O)NCCCCCCCCCCCCNC(=O)c2ccc(-c3nc4ccccc4nc3*)cc2)cc1 (repeat unit)")
154.00

glass transition temperature recorded for this compound, *CC(*)(C)C(=O)OCCCCCCCCCCOc1ccc(/N=N/c2ccc([N+](=O)[O-])cc2)cc1 (repeat unit) , is 55.00

glass transition temperature recorded for this compound, *Oc1ccc(C(C)(C)c2cccc(C(C)(C)c3ccc(Oc4ccc(C(=O)Nc5cccc(NC(=O)c6ccc(*)cc6)c5)cc4)cc3)c2)cc1 (repeat unit) , is 155.00

glass transition temperature recorded for this compound, *c1cccc(N2C(=O)c3ccc(Oc4ccccc4Oc4ccc5c(c4)C(=O)N(*)C5=O)cc3C2=O)c1 (repeat unit) , is 224.00

----------
Each entry below carries its reported glass transition temperature.
I only need the number, in °C, no unit after it.

>>> reported_result("*CC(*)(CC(=O)Oc1ccc(OCCCCC)cc1)C(=O)Oc1ccc(OCCCCC)cc1 (repeat unit)")
73.50
>>> reported_result("*CC(*)(C)C(=O)Oc1c(C(C)C)cccc1C(C)C (repeat unit)")
198.00
>>> reported_result("*NC(CCC(=O)OC)C(*)=O (repeat unit)")
0.00

Now for a further compound.
glass transition temperature recorded for this compound, *CC(*)C(=O)OCCCCn1c2ccccc2c2ccccc21 (repeat unit) , is 68.00

----------
Mark class 1 for reported glass transition temperature of 100 °C or greater; mark class 0 for anything smaller.

Some solved entries appear below for comparison.
>>> assigned_label("*CCN(Cc1ccccc1)C(=O)S* (repeat unit)")
"class 0"
>>> assigned_label("*CC(*)C(=O)OCCn1c2ccccc2c2ccccc21 (repeat unit)")
"class 1"
>>> assigned_label("*Oc1ccc(CC(NC(=O)CCc2ccc(OC(=O)CC(C)CCC(*)=O)cc2)C(=O)OC(C)CC)cc1 (repeat unit)")
"class 0"

# bool: glass transition temperature of *Oc1cccc(NC(=O)c2cc(C(=O)Nc3ccc(*)cc3)cc(C(F)(F)C(F)(F)C(F)(F)C(F)(F)C(F)(F)C(F)(F)C(F)(F)C(F)(F)F)c2)c1 (repeat unit) >= 100 °C
class 1

# bool: glass transition temperature of *c1ccc(Oc2ccc(Oc3ccc(N4C(=O)c5ccc(Oc6ccc7c(c6)C(=O)N(*)C7=O)cc5C4=O)cc3)cc2)cc1 (repeat unit) >= 100 °C
class 1

# bool: glass transition temperature of *CCCCCCCCCCOC(=O)Nc1ccc(C)c(NC(=O)O*)c1 (repeat unit) >= 100 °C
class 0

----------
test_readout: glass transition temperature (°C)
I only need the number, in °C, no unit after it.

Look over these answered cases.
>>> reported_result("*c1ccc(-c2ccc(C3(*)c4ccccc4-c4ccccc43)cc2)cc1 (repeat unit)")
297.00
>>> reported_result("*CCOC(=O)c1ccc(C(=O)OCCOc2ccc(C(C)(C)c3ccc(O*)cc3)cc2)cc1 (repeat unit)")
83.00
>>> reported_result("*C(=O)c1cc(C(=O)c2ccc3c(c2)C(=O)N(c2ccc(Oc4ccc(N5C(=O)c6ccc(*)cc6C5=O)cc4)cc2)C3=O)cc(C(C)(C)C)c1 (repeat unit)")
252.50
>>> reported_result("*CC1CC(COC(=O)c2ccc(C(=O)O*)cc2)CC(C(C)(C)C)C1 (repeat unit)")
118.00
>>> reported_result("*c1ccc(Oc2ccc(N3C(=O)c4ccc(Oc5c(C)cc(-c6cc(C)c(Oc7ccc8c(c7)C(=O)N(*)C8=O)c(C)c6)cc5C)cc4C3=O)cc2)cc1 (repeat unit)")
299.00

glass transition temperature recorded for this molecule, *Oc1ccc(C2(c3ccc(OC(*)=O)cc3)c3cc(N(C)C)ccc3-c3ccc([N+](=O)[O-])cc32)cc1 (repeat unit) , is 278.00

glass transition temperature recorded for this molecule, *CC(*)Cc1cccc(C)c1 (repeat unit) , is 40.00

glass transition temperature recorded for this molecule, *Oc1ccc(C(c2ccccc2)c2ccc(OC(*)=S)cc2)cc1 (repeat unit) , is 179.00

glass transition temperature recorded for this molecule, *CCCCCCN1C(=O)c2ccc(C(=O)c3ccc4c(c3)C(=O)N(*)C4=O)cc2C1=O (repeat unit) , is 127.00
